The following compounds are shown together with reported AUC(0-inf) values.
- Experiment Summary: Pharmacokinetics in rat plasma after oral administration of PA, PMRP or ATR (HPLC-MS and GC-MS)
- Assay Conditions: male, Sprague-Dawley, rat, plasma, po, 4.32 g/kg
Quantity Measured: AUC(0-inf) (ng·h/mL)

>  <Compound>
C/C=C/c1cc(OC)c(OC)cc1OC [α-asarone]

>  <Units Symbol>
ng·h/mL

>  <Number>
1240

$$$$
>  <Compound>
C/C=C/c1ccc(OC)c(OC)c1 [cis-methyl isoeugenol]

>  <Units Symbol>
ng·h/mL

>  <Number>
129

$$$$
>  <Compound>
C/C=C\c1cc(OC)c(OC)cc1OC [β-asarone]

>  <Units Symbol>
ng·h/mL

>  <Number>
744

$$$$
>  <Compound>
OCC1OC(Oc2c(O)cc(O)cc2C=Cc2ccc(O)cc2)C(O)C(O)C1O (stereo not shown) [THSG]

>  <Units Symbol>
ng·h/mL

>  <Number>
1630

$$$$
